Answer each item with its documented Total Cell Count.
# Tested on: Fibroblast
# Test protocol: Multiplex assay against human fibroblast
# Format: toxicity, cell-based
# Measurement setup: 12 h, 10 µM, compound concentration 10 uM, replicate 2

### Prompt Lab note: need Total Cell Count with Fibroblast for entry Cc1cc(NC(=O)NCCN2CCC(O)(Cc3ccccc3)CC2)c2ccccc2n1 , please look it up.
### Response 113

### Prompt What measured Total Cell Count is associated with COc1ccc2c(c1OCc1ccccc1)C[C@@H](C(=O)O)N(C(=O)C(c1ccccc1)c1ccccc1)C2 on Fibroblast?
### Response 162

### Prompt # returns recorded Total Cell Count (system: Fibroblast) for Cc1c(Cc2ccc3ccccc3n2)c2cc(F)ccc2n1CC(=O)O
### Response 160

### Prompt What value of Total Cell Count on Fibroblast does C[C@@H]1CC(=O)Nc2cccc(-c3ccc4c(c3)c(-c3cnn(C)c3)nn4C)c2N1 have?
### Response 126

---

# Test system: U2OS
# Test protocol: Multiplex assay against U2OS
# Format: toxicity, cell-based
# Measurement setup: human, 24 h, 1 µM, compound concentration 1 uM, replicate 1
Recorded endpoint: Population Fragmented Nuclei (%)
Quick note: give the figure in %, leave out the unit.

### Prompt Quick check: Population Fragmented Nuclei (%) of COC(c1ccccc1)(c1ccccc1)[C@H](Oc1nc(C)cc(C)n1)C(=O)O ?
### Response 27

### Prompt Name the reported Population Fragmented Nuclei (%) value associated with the compound COc1ccc2c(c1OCc1ccccc1)C[C@@H](C(=O)O)N(C(=O)C(c1ccccc1)c1ccccc1)C2
### Response 25

### Prompt Looking for the measured Population Fragmented Nuclei (%) of COc1cc2nc(N3CCN(C(=O)COc4c(OC)cccc4C(C)C)CC3)nc(N)c2cc1OC.Cl.Cl , can you help?
### Response 21

### Prompt What value of measured Population Fragmented Nuclei (%) is listed for CSc1nc(NC2CCCC2)c([N+](=O)[O-])c(NC2CCCC2)n1 ?
### Response 22

---

Would you kindly list Population Normal (%) for each of these molecules?
# Tested on: HEK-293T
# Test protocol: Multiplex assay against HEK293T
# Format: toxicity, cell-based
# Measurement setup: human, 12 h, 1 µM, compound concentration 1 uM, replicate 2
Express your answer in %, writing the number without its unit.

### Prompt For CC(C)C[C@H](CO)Nc1nc(S[C@@H](C)c2ccccc2)nc2nc(N)sc12 , what is its reported Population Normal (%)?
### Response 92

### Prompt Return reported Population Normal (%); argument: COc1c(Nc2ccc(S(C)(=O)=O)nc2C)ncnc1OC1CCN(C(=O)OC(C)C)CC1
### Response 96

### Prompt # Population Normal (%) lookup, item CCCCC[C@H](O)/C=C/[C@H]1[C@H](O)CC(=O)[C@@H]1CCCCCCC(=O)O
### Response 93

### Prompt Would you kindly share the measured Population Normal (%) for CC(F)(F)CN1CCOc2c(nn(-c3ccccc3Cl)c2-c2ccc(Cl)cc2)C1=O ?
### Response 91

### Prompt For the molecule Cl.Cl.OCCOCCN1CCN(C(c2ccccc2)c2ccc(Cl)cc2)CC1 (stereo not drawn) [HYDROXYZINE HYDROCHLORIDE] , what Population Normal (%) is on record?
### Response 90

### Prompt I would be grateful if you could share the reported Population Normal (%) for CCC(=O)OCC(=O)[C@@]1(OC(=O)CC)[C@@H](C)C[C@H]2[C@@H]3CCC4=CC(=O)C=C[C@]4(C)[C@@]3(Cl)[C@@H](O)C[C@@]21C [BECLOMETHASONE DIPROPIONATE] .
### Response 95

### Prompt Param item = Cc1cc(O)c(-c2ccc([C@@H](C)CN(C)C)cc2)c2c1[nH]c(=O)c1sccc12 ; retrieve measured Population Normal (%).
### Response 71

### Prompt Which Population Normal (%) is listed for O=C(Nc1cc(-c2ccccc2)nn1-c1ccccc1F)c1ccc([N+](=O)[O-])cc1 ?
### Response 94

---

Consider the following compounds; for each one, report its Population Normal (%).
# Tested on: Fibroblast
# Test protocol: Multiplex assay against human fibroblast
# Format: toxicity, cell-based
# Measurement setup: 12 h, 1 µM, compound concentration 1 uM, replicate 2
Expressed in %, but write only the number.

### Prompt What value of Population Normal (%) has been reported for the following compound? O=C(NCCNCC(O)COc1ccc(O)cc1)N1CCOCC1.O=C(NCCNCC(O)COc1ccc(O)cc1)N1CCOCC1.O=C(O)/C=C/C(=O)O (centres undefined) [XAMOTEROL FUMARATE]
### Response 95

### Prompt # Population Normal (%) lookup, item Cc1cc(O)c(-c2ccc([C@@H](C)CN(C)C)cc2)c2c1[nH]c(=O)c1sccc12
### Response 97

### Prompt Reported Population Normal (%) for COc1ccc2c(c1OCc1ccccc1)C[C@@H](C(=O)O)N(C(=O)C(c1ccccc1)c1ccccc1)C2 [OLODANRIGAN] : what is it?
### Response 98

### Prompt Requested field: Population Normal (%). Item: CN1CCN2c3ccccc3Cc3ccccc3C2C1.Cl (centres undefined) [MIANSERIN HYDROCHLORIDE]
### Response 95

### Prompt Quick one: Population Normal (%) of COCCn1c(C)c(C)s/c1=N\C(=O)C1C(C)(C)C1(C)C ?
### Response 95

### Prompt Look up Population Normal (%): CSc1nc(NC2CCCC2)c([N+](=O)[O-])c(NC2CCCC2)n1 [GS-39783]
### Response 94

### Prompt What Population Normal (%) value was documented for this compound, N[C@](CC1c2ccccc2Oc2ccccc21)(C(=O)O)[C@H]1C[C@@H]1C(=O)O ?
### Response 98

### Prompt # query: Population Normal (%) of entry Cc1sc2c(c1C)C(c1ccc(Cl)cc1)=N[C@H](CC(=O)OC(C)(C)C)c1nnc(C)n1-2
### Response 94

### Prompt Quick one: Population Normal (%) for C[C@@H]1CC(=O)Nc2cccc(-c3ccc4c(c3)c(-c3cnn(C)c3)nn4C)c2N1 ?
### Response 94

---

# Tested on: U2OS
# Test protocol: Multiplex assay against U2OS
# Assay type: toxicity, cell-based
# Measurement setup: human, 12 h, 10 µM, compound concentration 10 uM, replicate 1
Recorded endpoint: Population Membrane Permeable-Phenotype (%)
Please format your answer as a value with the unit trailing.

### Prompt // query Population Membrane Permeable-Phenotype (%) value for entry Cc1cc(-c2ccc3c(c2)CC[C@H]3N2CC3(CCN(C(=O)Cc4cn5cc(C)sc5n4)CC3)C2)ncn1 [PF-5190457]
### Response 7%

### Prompt If you can, please state the reported Population Membrane Permeable-Phenotype (%) value of COc1cc(Nc2ncc3c(n2)-c2ccc(Cl)cc2C(c2c(F)cccc2OC)=NC3)ccc1C(=O)O [ALISERTIB] .
### Response 11%

### Prompt For the compound shown here, CC(C)C[C@H](CO)Nc1nc(S[C@@H](C)c2ccccc2)nc2nc(N)sc12 [AZD-8797] , give the reported Population Membrane Permeable-Phenotype (%).
### Response 30%

### Prompt # input compound: C[C@@H]1CC(=O)Nc2cccc(-c3ccc4c(c3)c(-c3cnn(C)c3)nn4C)c2N1 ; wanted: its Population Membrane Permeable-Phenotype (%)
### Response 11%

### Prompt Recorded Population Membrane Permeable-Phenotype (%) of COc1c(Nc2ccc(S(C)(=O)=O)nc2C)ncnc1OC1CCN(C(=O)OC(C)C)CC1 [ADP-597] , please.
### Response 7%

### Prompt Value lookup for Population Membrane Permeable-Phenotype (%); key = Cc1ccc(OCC(O)C(C)NC(C)C)c2c1CCC2.Cl (centres undefined)
### Response 14%

### Prompt What does the record list as Population Membrane Permeable-Phenotype (%) for C[C@H](NC(=O)CNC(=O)c1cccc(Cl)c1)c1ccccc1 ?
### Response 9%

### Prompt Field request: Population Membrane Permeable-Phenotype (%) | item: CCn1c(-c2nc3cc(C(=O)N4CCCC(N)C4)ccc3n2C)cc2ccccc21.Cl (centres undefined)
### Response 34%

### Prompt Give the measured Population Membrane Permeable-Phenotype (%) of CC(C)(O)C(=O)N1CCN(c2ccc(C(F)(F)F)c(C3=C(c4c[nH]c5ccccc45)C(=O)NC3=O)c2)CC1 .
### Response 39%

---

# Test system: Fibroblast
# Test protocol: Multiplex assay against human fibroblast
# Format: toxicity, cell-based
# Measurement setup: 48 h, 10 µM, compound concentration 10 uM, replicate 2
# Population Tubulin-Different-Phenotype (%) binned as low range = under 60%, mid range = from 60% up to 70%, high range = 70% and over

### Prompt Which band does CN(C)C/C=C/C(=O)Nc1ccc(C(=O)N2CCCC(Nc3ncc(Cl)c(-c4c[nH]c5ccccc45)n3)C2)cc1 (configuration not stated) fall in?
### Response high range

### Prompt Into which category would you place OCCCNc1cc(-c2ccnc(Nc3cccc(Cl)c3)n2)ccn1 ?
### Response mid range

### Prompt Determine which band this compound sits in: CN(C)C(=O)Cn1cc(-c2ccc(-c3nnc4ccccn34)cc2)cn1
### Response high range

### Prompt Form field 'band' for Cc1sc2c(c1C)C(c1ccc(Cl)cc1)=N[C@H](CC(=O)OC(C)(C)C)c1nnc(C)n1-2
### Response high range

### Prompt Which of the defined bands does the recorded Population Tubulin-Different-Phenotype (%) of O=C(Nc1cc(-c2ccccc2)nn1-c1ccccc1F)c1ccc([N+](=O)[O-])cc1 sit within?
### Response mid range

### Prompt # bin lookup: classify C=CCN1C[C@H](C(=O)N(CCCN(C)C)C(=O)NCC)C[C@@H]2c3cccc4[nH]cc(c34)C[C@H]21 by its Population Tubulin-Different-Phenotype (%)
### Response low range

### Prompt Please classify: Cc1c(Cc2ccc3ccccc3n2)c2cc(F)ccc2n1CC(=O)O
### Response low range

### Prompt State the class of the compound shown: Cc1cc(-c2ccc3c(c2)CC[C@H]3N2CC3(CCN(C(=O)Cc4cn5cc(C)sc5n4)CC3)C2)ncn1
### Response mid range

### Prompt Hey, which category is CC(C)(C)c1ccc(CSc2cnn(C(C)(C)C)c(=O)c2Cl)cc1 in, do you know?
### Response low range

### Prompt Class (by measured Population Tubulin-Different-Phenotype (%)) for O=c1ccc2ccc(OCCCCN3CCN(c4cccc5sccc45)CC3)cc2[nH]1
### Response low range

### Prompt Please let me know in which category the item CCC(=O)OCC(=O)[C@@]1(OC(=O)CC)[C@@H](C)C[C@H]2[C@@H]3CCC4=CC(=O)C=C[C@]4(C)[C@@]3(Cl)[C@@H](O)C[C@@]21C [BECLOMETHASONE DIPROPIONATE] belongs.
### Response high range

### Prompt Categorize the following entry: Nc1nc(CC(=O)Nc2ccc(CCNC[C@H](O)c3ccccc3)cc2)cs1
### Response low range

### Prompt Bin? COc1c(Nc2ccc(S(C)(=O)=O)nc2C)ncnc1OC1CCN(C(=O)OC(C)C)CC1
### Response high range

### Prompt Which Population Tubulin-Different-Phenotype (%) band matches Cc1cc(=O)n(C)c2cc(N3C(=O)CC[C@H](NS(=O)(=O)CC(C)C)[C@H]3c3ccc(Cl)cc3)ccc12 ?
### Response high range

### Prompt Place this compound in its band: COc1cc2nc(N3CCN(C(=O)c4ccco4)CC3)nc(N)c2cc1OC.Cl [PRAZOSIN HYDROCHLORIDE]
### Response low range

Cited source: ChEMBL document CHEMBL5058577
